Source listed as paper PMC2193707.

- STUDY SYSTEM: hCD22d1–3-Fc (Homo sapiens, UniProt P20273)
- Sequence (P20273 20-330 limits assumed): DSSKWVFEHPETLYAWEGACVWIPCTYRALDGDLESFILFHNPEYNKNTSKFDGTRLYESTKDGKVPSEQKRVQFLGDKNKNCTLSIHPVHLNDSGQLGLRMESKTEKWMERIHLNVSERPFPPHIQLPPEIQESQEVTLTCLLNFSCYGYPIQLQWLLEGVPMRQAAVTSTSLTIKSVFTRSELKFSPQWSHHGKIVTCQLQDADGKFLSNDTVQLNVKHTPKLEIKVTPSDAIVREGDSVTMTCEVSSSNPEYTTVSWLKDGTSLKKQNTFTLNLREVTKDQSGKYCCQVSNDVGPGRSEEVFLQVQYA
RESULT TYPE: IC50 (µM)

1. CO[C@]1(C(=O)O)C[C@H](O)[C@@H](NC(C)=O)[C@H]([C@H](O)[C@H](O)CNC(=O)c2ccc(-c3ccccc3)cc2)O1 : 4
